target: CYP2A13 (Homo sapiens, UniProt Q16696); assay: Evaluation of test compounds as inhibitors of CYP2A13 (coumarin to Umbelliferone, fluorescence); settings: substrate coumarin 0.006 mM; microsomes with 7 pmoles CYP2A13; 60 min at 37° C.; read-out: CYP2A13 inhibitor activity IC50
Sequence (Q16696 whole entry): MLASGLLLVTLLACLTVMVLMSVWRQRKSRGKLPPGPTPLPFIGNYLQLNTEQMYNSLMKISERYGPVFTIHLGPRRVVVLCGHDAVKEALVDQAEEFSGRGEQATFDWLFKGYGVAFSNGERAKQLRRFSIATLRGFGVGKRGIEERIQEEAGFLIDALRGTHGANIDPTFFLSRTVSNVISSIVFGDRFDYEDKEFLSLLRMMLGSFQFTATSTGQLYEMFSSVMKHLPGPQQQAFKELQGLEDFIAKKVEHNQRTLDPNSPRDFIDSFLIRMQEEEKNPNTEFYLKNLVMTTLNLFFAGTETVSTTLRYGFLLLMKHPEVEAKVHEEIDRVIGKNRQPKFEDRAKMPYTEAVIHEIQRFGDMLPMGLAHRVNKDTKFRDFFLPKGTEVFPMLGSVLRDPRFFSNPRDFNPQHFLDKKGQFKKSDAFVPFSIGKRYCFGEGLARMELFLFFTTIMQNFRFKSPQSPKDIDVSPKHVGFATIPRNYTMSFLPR
readout-kind: IC50 (µM)
Give your result in µM as a bare value.

Return the recorded IC50 value; entry: CCCCCC/C(=C\C1CC1)C(C)=O [Compound ID 2, (E)-3-(cyclopropylmethylene)nonan-2-one] 1.1

Return the recorded IC50 value; entry: CCCCC/C(=C\c1cc(F)cc(F)c1)C(C)=O [Compound ID 25] 0.6

Return the recorded IC50 value; entry: CCCCC/C(=C\c1ccccn1)C(C)=O [Compound ID 43, (E)-3-(pyridin-2-ylmethylene)octan-2-one] 0.1

Return the recorded IC50 value; entry: CCCCCC(Cc1ccccc1)C(=O)OC (centres unmarked) [Compound ID 49, methyl 2-benzylheptanoate] 4.4

Return the recorded IC50 value; entry: CCCCC/C(=C\c1ccncc1)C(C)=O [Compound ID 45, (E)-3-(pyridin-4-ylmethylene)octan-2-one] 0.5

Return the recorded IC50 value; entry: CCCC/C(=C\C1CCOC1)C(C)=O (centres unmarked) [Compound ID 10] 15.5

Return the recorded IC50 value; entry: CCCCC/C(=C\C1CC1)C(=O)c1ccccc1 [Compound ID 52] 6.6

Return the recorded IC50 value; entry: CCCCCC1(C(=O)OC)CCCC1 [Compound ID 14, methyl 1-pentylcyclopentanecarboxylate] 2.1

Return the recorded IC50 value; entry: CCCCCC(CC1CC1)C(C)=O (centres unmarked) [Compound ID 50, 3-(cyclopropylmethyl)octan-2-one] 1.3

Return the recorded IC50 value; entry: CCCC/C(=C\c1ccccc1)C(C)=O [Compound ID 33, (E)-3-benzylideneheptan-2-one] 0.6

Return the recorded IC50 value; entry: CCCCC/C(=C\CC1(C)OCCO1)C(C)=O [Compound ID 12] 3.2

Return the recorded IC50 value; entry: CCCCC/C(=C\c1ccc2c(c1)OCO2)C(C)=O [Compound ID 39] 2

Return the recorded IC50 value; entry: CCCCC/C(=C\C(C)(C)C)C(C)=O [Compound ID 55] 0.3

Return the recorded IC50 value; entry: CCCCC/C(=C\c1ccc(C#N)cc1)C(C)=O [Compound ID 7, (E)-4-(2-acetylhept-1-enyl)benzonitrile] 2

Return the recorded IC50 value; entry: CCCCC/C(=C\C(C)(C)C)C(=O)OC [Compound ID 53] 1.9

Return the recorded IC50 value; entry: CCC/C(=C\c1ccc(OC)cc1)C(C)=O [Compound ID 38, (E)-3-(4-methoxybenzylidene)hexan-2-one] 2

Return the recorded IC50 value; entry: CCCCC/C(=C\c1ccc(OC)cc1)C(C)=O [Compound ID 36, (E)-3-(4-methoxybenzylidene)octan-2-one] 0.4

* * *

molecular target: UniProtKB Q16696; assay: Evaluation of test compounds as inhibitors of CYP2A13 (coumarin to Umbelliferone, fluorescence); details: substrate coumarin 0.006 mM; microsomes with 7 pmoles CYP2A13; 60 min at 37° C.; read-out: CYP2A13 inhibitor activity IC50
Would you kindly list pIC50 for each of these compounds?
pIC50 is defined as minus the log10 of a concentration measured in mol/L.

Return the recorded pIC50 value; entry: CCCCC/C(=C\c1ccccc1C(F)(F)F)C(C)=O [Compound ID 31] 6.70

Return the recorded pIC50 value; entry: CCCCC/C(=C\c1ccccc1F)C(C)=O [Compound ID 20, (E)-3-(2-fluorobenzylidene)octan-2-one] 6.52

Return the recorded pIC50 value; entry: CCCCC/C(=C\c1ccc(F)cc1)C(C)=O [Compound ID 22, (E)-3-(4-fluorobenzylidene)octan-2-one] 6.40

Return the recorded pIC50 value; entry: CCCCCC(CC1CC1)C(=O)OC (stereo not shown) [Compound ID 48, methyl 2-(cyclopropylmethyl)heptanoate] 5.06

Return the recorded pIC50 value; entry: CCCC/C(=C\C1CC1)C(C)=O [Compound ID 1, (E)-3-(cyclopropylmethylene)heptan-2-one] 6.30

Return the recorded pIC50 value; entry: CCCCC/C(=C\c1ccccc1C)C(C)=O [Compound ID 28, (E)-3-(2-methylbenzylidene)octan-2-one] 6.52

Return the recorded pIC50 value; entry: CCCCC/C(=C\c1ccccc1OC)C(C)=O [Compound ID 34, (E)-3-(2-methoxybenzylidene)octan-2-one] 6.40

* * *

Target chain: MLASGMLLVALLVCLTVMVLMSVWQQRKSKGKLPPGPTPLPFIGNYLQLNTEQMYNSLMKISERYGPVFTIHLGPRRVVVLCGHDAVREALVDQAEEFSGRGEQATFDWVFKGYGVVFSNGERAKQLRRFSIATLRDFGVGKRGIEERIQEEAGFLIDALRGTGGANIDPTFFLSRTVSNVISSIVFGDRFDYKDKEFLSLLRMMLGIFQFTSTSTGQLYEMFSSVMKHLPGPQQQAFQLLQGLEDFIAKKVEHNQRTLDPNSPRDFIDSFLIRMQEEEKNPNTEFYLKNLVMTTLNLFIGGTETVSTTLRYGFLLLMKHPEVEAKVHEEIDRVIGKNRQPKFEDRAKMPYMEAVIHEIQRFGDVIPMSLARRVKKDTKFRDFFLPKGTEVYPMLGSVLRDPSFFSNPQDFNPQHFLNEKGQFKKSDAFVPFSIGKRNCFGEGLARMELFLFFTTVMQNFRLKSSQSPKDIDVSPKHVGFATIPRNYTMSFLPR
readout-kind: pIC50
pIC50 is defined as minus the log10 of a concentration measured in mol/L.

Return the recorded pIC50 value; entry: CCCC/C(=C\C1CC1)C(C)=O [Compound ID 1, (E)-3-(cyclopropylmethylene)heptan-2-one] 5.52

Return the recorded pIC50 value; entry: CCCCC/C(=C\C1CC1)C(C)=O [Compound ID 3, (E)-3-(cyclopropylmethylene)octan-2-one] 5.15

Return the recorded pIC50 value; entry: CCCCCC/C(=C\C1CC1)C(C)=O [Compound ID 2, (E)-3-(cyclopropylmethylene)nonan-2-one] 5.10

Return the recorded pIC50 value; entry: CCCCC/C(=C\c1ccccc1)C(C)=O [Compound ID 5, (E)-3-benzylideneoctan-2-one] 3.85

* * *

target: CYP2A13 (Homo sapiens, UniProt Q16696); assay: Evaluation of test compounds as inhibitors of CYP2A13 (coumarin to Umbelliferone, fluorescence); settings: substrate coumarin 0.006 mM; microsomes with 7 pmoles CYP2A13; 60 min at 37° C.; read-out: CYP2A13 inhibitor activity IC50
Would you kindly list IC50 for each of these molecules?

Return the recorded IC50 value; entry: CCCCC/C(=C\c1cccc(C)c1)C(C)=O [Compound ID 29, (E)-3-(3-methylbenzylidene)octan-2-one] 400 nM

Return the recorded IC50 value; entry: CCCCCC/C(=C\C1CC1)C(=O)/C=C/C1CC1 9700 nM

Return the recorded IC50 value; entry: CCCCCC(Cc1ccccc1)C(C)=O (stereo not shown) 4800 nM

Return the recorded IC50 value; entry: CCCCC/C(=C\c1ccc(F)cc1F)C(C)=O 200 nM

Return the recorded IC50 value; entry: CCCCC/C(=C\c1ccccc1)C(C)=O [Compound ID 5, (E)-3-benzylideneoctan-2-one] 600 nM

Return the recorded IC50 value; entry: CCCCC/C(=C\C1CCCC1)C(C)=O [Compound ID 18, (E)-3-(cyclopentylmethylene)octan-2-one] 500 nM

Return the recorded IC50 value; entry: CCCCC/C(=C\C1CC1)C(=O)CC [Compound ID 57, (E)-4-(cyclopropylmethylene)nonan-3-one] 300 nM

Return the recorded IC50 value; entry: CCCCC/C(=C\c1ccccc1)C(=O)CC [Compound ID 58, (E)-4-benzylidenenonan-3-one] 500 nM

Return the recorded IC50 value; entry: CCCCC/C(=C\C1CC1)C(C)=O [Compound ID 3, (E)-3-(cyclopropylmethylene)octan-2-one] 300 nM

Return the recorded IC50 value; entry: CCCCC/C(=C/c1cc(F)cc(F)c1)C(C)=O 14300 nM

Return the recorded IC50 value; entry: CCCCCC1(C(C)=O)CCCC1 700 nM

Return the recorded IC50 value; entry: CCCCC/C(=C\c1c(F)cccc1F)C(C)=O 200 nM

Return the recorded IC50 value; entry: CCCCC/C(=C\c1ccc(C)cc1)C(C)=O [Compound ID 30, (E)-3-(4-methylbenzylidene)octan-2-one] 400 nM

Return the recorded IC50 value; entry: CCCCCC/C(=C\c1ccccc1)C(C)=O [Compound ID 6, (E)-3-benzylidenenonan-2-one] 3000 nM

Return the recorded IC50 value; entry: CCCCC/C(=C\C(C)C)C(C)=O [Compound ID 56, (E)-3-(2-methylpropylidene)octan-2-one] 200 nM

Return the recorded IC50 value; entry: CCCCC/C(=C\C1CCCCC1)C(C)=O [Compound ID 16, (E)-3-(cyclohexylmethylene)octan-2-one] 500 nM
